test system: HepG2 cells; assay: cells; format: cell-based, human; conditions: read-out: IC50 HepG2 Gal; galactose medium
measurement.type: IC50 (µM)
The figure you give is taken to be in µM; do not add the unit.

For reference, reported IC50 for `Cc1cn2c(C(=O)NCc3cccc(S(F)(F)(F)(F)F)c3)c(C)nc2s1` stands at 14.1

---

assay: in vitro; settings: human, Caco-2, Caco-2 Efflux Ratio (average)
measurement.type: efflux ratio
Form: value (number only, do not type unit).

For reference, reported efflux ratio for `CCc1nc2ccc(Cl)cn2c1C(=O)NCc1cccc(S(F)(F)(F)(F)F)c1` stands at 3.2

---

assay: in vitro; conditions: human, Caco-2
Listed next: entries and their corresponding Papp A→B at 1 h.
The figure you give is taken to be in ×10⁻⁶ cm/s; do not add the unit.

1) Cc1cn2c(C(=O)NCc3ccc(S(F)(F)(F)(F)F)cc3)c(C)nc2s1 [Compound 19] | 6.35

API: the following record is the query input.
For reference, reported Papp A→B at 1 h for CCc1nc2ccc(Cl)cn2c1C(=O)NCc1cccc(S(F)(F)(F)(F)F)c1 [Compound 18] stands at 1.09

---

target: CYP2C8 (Homo sapiens)
Sequence (P10632 whole entry): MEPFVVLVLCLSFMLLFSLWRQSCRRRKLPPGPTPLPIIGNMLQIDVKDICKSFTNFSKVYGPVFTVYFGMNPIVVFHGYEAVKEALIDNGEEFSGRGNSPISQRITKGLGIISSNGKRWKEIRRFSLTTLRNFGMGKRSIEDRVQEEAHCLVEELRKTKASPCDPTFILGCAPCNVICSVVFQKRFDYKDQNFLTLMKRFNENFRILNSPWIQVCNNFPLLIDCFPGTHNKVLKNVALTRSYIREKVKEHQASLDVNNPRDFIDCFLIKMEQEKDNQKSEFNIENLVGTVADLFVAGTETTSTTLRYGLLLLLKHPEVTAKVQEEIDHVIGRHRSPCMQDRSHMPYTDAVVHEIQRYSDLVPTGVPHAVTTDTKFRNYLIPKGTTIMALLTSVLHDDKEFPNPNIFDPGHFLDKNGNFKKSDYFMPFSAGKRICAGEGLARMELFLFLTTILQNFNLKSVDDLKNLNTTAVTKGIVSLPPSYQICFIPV
measurement.type: IC50 (µM)
The figure you give is taken to be in µM; do not add the unit.

Log: CYP2C8 (Homo sapiens), molecule `CCc1nc2ccc(Cl)cn2c1C(=O)NCc1cccc(S(F)(F)(F)(F)F)c1` , IC50 = 14.4

---

experiment: in vitro; conditions: plasma
measurement.type: fraction unbound
Form: value (number only, do not type unit).

1. Cc1cn2c(C(=O)NCc3ccc(S(F)(F)(F)(F)F)cc3)c(C)nc2s1 | 0.003

For reference, reported fraction unbound for `CCc1nc2ccc(Cl)cn2c1C(=O)NCc1cccc(S(F)(F)(F)(F)F)c1` stands at 0.001

---

Listed next: entries and their corresponding MIC.
system: Mycobacterium tuberculosis H37Rv; experiment: Microplate alamar blue assay; format: cell-based

1. Cc1ccn2c(C(=O)NCc3ccc(S(F)(F)(F)(F)F)cc3)c(C)nc2c1 | < 0.1 µM
2. Cc1ccc2nc(C)c(C(=O)NCc3cccc(S(F)(F)(F)(F)F)c3)n2c1 | < 0.1 µM
3. Cc1cn2c(C(=O)NCc3ccc(S(F)(F)(F)(F)F)cc3)c(C)nc2s1 | < 0.1 µM

API: the following record is the query input.
For reference, reported MIC for `Cc1ccc2nc(C)c(C(=O)NCc3ccc(S(F)(F)(F)(F)F)cc3)n2c1` stands at < 0.1 µM

---

system: HepG2 cells; experiment: cells; assay type: cell-based, human; conditions: Homo sapiens, HepG2, read-out: IC50 HepG2 Gal, galactose medium
Listed next: entries and their corresponding IC50.

Use these answered entries as a reference point.
1) Cc1cn2c(C(=O)NCc3cccc(S(F)(F)(F)(F)F)c3)c(C)nc2s1 | 14 µM
2) CCc1nc2ccc(Cl)cn2c1C(=O)NCc1ccc(S(F)(F)(F)(F)F)cc1 | > 25 µM
3) Cc1ccc2nc(C)c(C(=O)NCc3cccc(S(F)(F)(F)(F)F)c3)n2c1 | > 25 µM
4) Cc1cn2c(C(=O)NCc3ccc(S(F)(F)(F)(F)F)cc3)c(C)nc2s1 | > 25 µM
5) Cc1ccc2nc(C)c(C(=O)NCc3ccc(S(F)(F)(F)(F)F)cc3)n2c1 | > 25 µM

Log: HepG2 cells, molecule `CCc1nc2ccc(Cl)cn2c1C(=O)NCc1cccc(S(F)(F)(F)(F)F)c1` , IC50 = > 25 µM

---

biological target: CYP2D6 (Homo sapiens); assay: biochemical
Sequence (P10635 whole entry): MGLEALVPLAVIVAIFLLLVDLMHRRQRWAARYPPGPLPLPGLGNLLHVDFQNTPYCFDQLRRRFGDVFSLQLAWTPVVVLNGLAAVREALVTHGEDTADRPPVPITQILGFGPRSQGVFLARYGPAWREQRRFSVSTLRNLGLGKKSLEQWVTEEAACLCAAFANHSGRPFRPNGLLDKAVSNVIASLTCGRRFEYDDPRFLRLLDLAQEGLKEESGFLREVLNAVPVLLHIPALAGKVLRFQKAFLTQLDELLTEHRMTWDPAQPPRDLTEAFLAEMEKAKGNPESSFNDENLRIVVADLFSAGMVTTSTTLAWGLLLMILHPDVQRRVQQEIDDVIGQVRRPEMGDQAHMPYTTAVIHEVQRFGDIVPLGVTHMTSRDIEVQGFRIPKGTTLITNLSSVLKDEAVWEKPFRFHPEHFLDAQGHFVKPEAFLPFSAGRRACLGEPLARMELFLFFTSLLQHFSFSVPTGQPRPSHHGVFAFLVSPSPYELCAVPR
Listed next: entries and their corresponding IC50.
The figure you give is taken to be in µM; do not add the unit.

1) Cc1cn2c(C(=O)NCc3ccc(S(F)(F)(F)(F)F)cc3)c(C)nc2s1 [Compound 19] | 13.4

API: the following record is the query input.
For reference, reported IC50 for CCc1nc2ccc(Cl)cn2c1C(=O)NCc1cccc(S(F)(F)(F)(F)F)c1 [Compound 18] stands at 6.5

---

Listed next: entries and their corresponding microsomal CLint.
assay: in vitro; settings: human, s9
The figure you give is taken to be in µL/min/mg; do not add the unit.

1. Cc1cn2c(C(=O)NCc3ccc(S(F)(F)(F)(F)F)cc3)c(C)nc2s1 [Compound 19] | 175

For reference, reported microsomal CLint for CCc1nc2ccc(Cl)cn2c1C(=O)NCc1cccc(S(F)(F)(F)(F)F)c1 [Compound 18] stands at 89.7

---

Listed next: entries and their corresponding IC50.
system: HepG2 cells; test: cells; format: cell-based, human; settings: Homo sapiens, HepG2, read-out: IC50 HepG2 Gal, galactose medium

Use these answered entries as a reference point.
1) Cc1ccn2c(C(=O)NCc3cccc(S(F)(F)(F)(F)F)c3)c(C)nc2c1 | > 25 µM
2) CC(=O)NC[C@H]1CN(c2ccc(N3CCOCC3)c(F)c2)C(=O)O1 [LIN, linezolid, reference compound] | > 25 µM

API: the following record is the query input.
For reference, reported IC50 for `Cc1ccn2c(C(=O)NCc3ccc(S(F)(F)(F)(F)F)cc3)c(C)nc2c1` stands at > 25 µM
